Would you kindly list melting point for each of these compounds?

COMPOUND	RECORDED_VALUE
O=C(NCC(O)CO)c1cc2c(Oc3ccc(Br)cc3)cncc2s1 (stereo not shown)	76 to 77 °C

Please look at the items below and tell me melting point for each one, in order.
1. NC(=O)CNC(=O)c1cc2c(Oc3ccc(Cl)cc3)cncc2s1
2. Cc1ccc(Sc2cncc3sc(C(N)=O)cc23)cc1C
3. NC(=O)c1cc2c(SCc3ccc(Cl)cc3)cncc2s1
4. NC(=O)c1cc2c(Sc3ccccn3)cncc2s1
5. CCc1cc2c(Sc3ccccn3)ncnc2s1
6. CONC(=O)c1cc2c(Sc3ccc(C)cc3)cncc2s1
7. Nc1ccccc1C(=O)c1cc2c(Oc3ccc(Cl)cc3)cncc2s1

1. 222 to 225 °C
2. 192 to 194 °C
3. 198 to 199 °C
4. 239 to 242 °C
5. 76.5 to 79 °C
6. 200 to 203 °C
7. 152 to 154 °C

Please look at the items below and tell me melting point for each one, in order.
1. NCCNC(=O)c1cc2c(Oc3ccc(Cl)cc3)cncc2s1
2. Oc1ccc(-c2cc3c(Oc4ccc(Cl)cc4)cncc3s2)cc1
3. Cc1ccc(Sc2cncc3sc(C=NO)cc23)cc1
4. COc1ccc(Sc2cncc3sc(C(N)=O)cc23)cc1
5. CNc1nnc(-c2cc3c(Oc4ccc(Cl)cc4)cncc3s2)s1

1. 111 to 114 °C
2. 213 to 215 °C
3. 209 to 210 °C
4. 219 to 221 °C
5. 226 to 229 °C

Please look at the items below and tell me melting point for each one, in order.
1. C=Cc1ccc(Oc2cncc3sc(C(=O)N(C)C)cc23)cc1
2. Cc1nc(-c2cc3c(Oc4ccc(Cl)cc4)cncc3s2)no1
3. CCc1cc(Oc2cncc3sc(C(N)=O)cc23)ccc1Cl
4. Cc1ccc(Sc2cncc3sc(C(=O)c4ccccc4)cc23)cc1
5. NC(=O)c1cc2c(Oc3ccc(C(F)(F)F)cc3)cnc(Cl)c2s1
6. CNC(=O)c1cc2c(Oc3ccc(C(F)(F)F)cc3)cnc(Cl)c2s1
7. Cc1cc(C)cc(Sc2cncc3sc(C(N)=O)cc23)c1
8. NC(=O)c1cc2c(Oc3ccc(COC(=O)c4ccco4)cc3)cncc2s1

1: 80 to 81 °C; 2: 120 to 121 °C; 3: 185 to 187 °C; 4: 103 to 107 °C; 5: 175 to 176 °C; 6: 178 to 179 °C; 7: 177 to 179 °C; 8: 180 to 182 °C

---

Would you kindly list melting point for each of these molecules?

MOLECULE	RESULT_TYPE	RECORDED_VALUE
Cc1csc2c(Sc3nnc(N)s3)ncnc12	melting point	221 to 223 °C
Nc1csc(-c2cc3c(Oc4ccc(Cl)cc4)cncc3s2)n1	melting point	168 to 170 °C (dec.)

Please look at the items below and tell me melting point for each one, in order.
1. CON(C)C(=O)c1cc2c(Sc3ccc(C)cc3)cncc2s1
2. NC(=O)c1cc2c(Oc3cccc(F)c3F)cncc2s1
3. Cc1ccc(Sc2cncc3sc(C(=O)Nc4ccc(Cl)cc4)cc23)cc1

103 to 107 °C
207 to 209 °C
208 to 211 °C

Please look at the items below and tell me melting point for each one, in order.
1. CON=C(C)c1cc2c(Oc3ccc(Cl)cc3)cncc2s1 [Example 243A]
2. Clc1ccc(Oc2cncc3sc(-c4cccs4)cc23)cc1
3. O=C(NCCO)c1cc2c(Oc3ccc(Cl)cc3)cnc(Cl)c2s1
4. CNC(=O)c1cc2c(Oc3ccc(COC4CCCCO4)cc3)cncc2s1 (stereo not drawn)
5. O=C(NCCCl)c1cc2c(Oc3ccc(Cl)cc3)cncc2s1

126 to 128 °C
101 to 103 °C
129 to 132 °C
195 to 196 °C
60 to 62 °C (dec.)

Please look at the items below and tell me melting point for each one, in order.
1. NNC(=O)c1cc2c(Oc3ccc(C(F)(F)F)cc3)cncc2s1
2. Nc1ccc(-c2cc3c(Oc4ccc(Cl)cc4)cncc3s2)cn1

1: 146 to 147 °C; 2: 208 to 210 °C

Entry source: patent US6579882B2
